I'd appreciate it if you could supply FRET LXRβ efficacy values for the items below.
ASSAY_TARGET: LXR β LBD protein (Homo sapiens (Human), UniProt P55055)
Sequence (P55055 222-460): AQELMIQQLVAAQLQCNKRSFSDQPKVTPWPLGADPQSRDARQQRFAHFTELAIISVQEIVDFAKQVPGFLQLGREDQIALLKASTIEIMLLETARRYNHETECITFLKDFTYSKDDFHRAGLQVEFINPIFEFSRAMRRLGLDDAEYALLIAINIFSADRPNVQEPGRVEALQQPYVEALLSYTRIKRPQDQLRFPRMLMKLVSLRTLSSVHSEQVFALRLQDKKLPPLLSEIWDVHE
EXPERIMENTAL_PROTOCOL: biochemical
Format: biochemical
REPORTED_CONDITIONS: agonist mode

Lookup: # get_value(readout='FRET LXRβ efficacy', item= CS(=O)(=O)c1cccc(N2CCN(C[C@H]3CC[C@@H](C(F)(F)F)CC3)[C@@H](c3ccccc3)C2)c1 (single isomer, unassigned) [48-31] )
Found: 37%

Lookup: Again, but for CS(=O)(=O)c1cccc(N2CCN(Cc3ccc(C(F)(F)F)c(F)c3)[C@H](c3ccccc3)C2)c1 (single isomer, unassigned) [46-25]
Found: 17972 (116) %

Lookup: Would you kindly repeat that for Cc1ccccc1[C@H]1CN(c2cccc(S(C)(=O)=O)c2)CCN1Cc1ccc(C(F)(F)F)nc1 (single isomer, unassigned) [46-46] ?
Found: 1214 (51) %
